Value source: ChEMBL document CHEMBL3576788

assay-info: Stability in human plasma assessed as compound remaining after 1 hr by HPLC analysis
Assay type: ADME, cell-free
measurement-context: read-out: Stability
readout-label: remaining at 1 h
I'd appreciate it if you wrote the number followed by its unit.

Request: Supply measured remaining at 1 h of "CC1=C(C)C(=O)C(CONC(=O)CCCCCCC(=O)Nc2ccccc2)=C(C)C1=O" in your reply.
Result: 72%

====

assayed-target: Histone deacetylase 8 (Homo sapiens)
assay-info: Reversible-time dependent inhibition of human wild type HDAC8 by Fluor-de-Lys activity assay
measurement-context: read-out: Ki(app)
readout-label: Ki (µM)
Answers are plain numbers, in µM.

Request: Fill in: Ki on Histone deacetylase 8 (Homo sapiens), entry "CC1=C(C)C(=O)C(CONC(=O)CCCCCCC(=O)Nc2ccccc2)=C(C)C1=O"
Result: 7

====

assayed-target: UniProtKB Q9UBN7
Sequence (Q9UBN7 whole entry): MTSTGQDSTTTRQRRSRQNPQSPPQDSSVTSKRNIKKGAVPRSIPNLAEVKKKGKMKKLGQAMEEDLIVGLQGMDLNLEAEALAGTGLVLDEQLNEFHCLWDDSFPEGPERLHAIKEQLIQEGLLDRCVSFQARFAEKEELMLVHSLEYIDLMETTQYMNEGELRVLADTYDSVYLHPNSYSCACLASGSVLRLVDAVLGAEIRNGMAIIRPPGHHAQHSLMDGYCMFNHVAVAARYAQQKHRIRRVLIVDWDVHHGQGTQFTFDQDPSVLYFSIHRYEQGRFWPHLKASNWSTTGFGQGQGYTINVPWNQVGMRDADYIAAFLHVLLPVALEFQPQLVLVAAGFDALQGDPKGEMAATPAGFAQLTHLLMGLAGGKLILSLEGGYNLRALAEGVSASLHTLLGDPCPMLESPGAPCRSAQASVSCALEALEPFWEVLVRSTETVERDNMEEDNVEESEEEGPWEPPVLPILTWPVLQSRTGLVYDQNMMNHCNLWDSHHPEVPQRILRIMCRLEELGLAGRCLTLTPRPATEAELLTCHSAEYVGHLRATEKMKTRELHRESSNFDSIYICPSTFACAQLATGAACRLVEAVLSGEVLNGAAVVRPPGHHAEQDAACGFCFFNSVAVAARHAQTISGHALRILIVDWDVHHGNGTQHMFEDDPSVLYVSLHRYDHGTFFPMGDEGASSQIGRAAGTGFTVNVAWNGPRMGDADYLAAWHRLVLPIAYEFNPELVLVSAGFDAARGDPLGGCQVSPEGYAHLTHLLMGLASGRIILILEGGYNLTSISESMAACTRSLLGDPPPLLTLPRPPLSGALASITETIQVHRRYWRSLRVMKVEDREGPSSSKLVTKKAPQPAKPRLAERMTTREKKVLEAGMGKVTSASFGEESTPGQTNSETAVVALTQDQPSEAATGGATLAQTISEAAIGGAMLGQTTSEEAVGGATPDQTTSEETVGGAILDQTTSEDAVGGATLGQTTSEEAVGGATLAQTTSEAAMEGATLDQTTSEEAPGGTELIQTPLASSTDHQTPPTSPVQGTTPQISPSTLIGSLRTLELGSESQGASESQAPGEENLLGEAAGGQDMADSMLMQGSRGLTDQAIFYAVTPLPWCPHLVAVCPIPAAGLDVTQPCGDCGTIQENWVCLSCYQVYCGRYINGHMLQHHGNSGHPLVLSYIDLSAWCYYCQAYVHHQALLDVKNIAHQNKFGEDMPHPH
assay-info: Inhibition of human recombinant HDAC6 using MAZ1600 as fluorogenic substrate measured every 5 mins by optimized homogenous fluorescence based assay
readout-label: pIC50
Answers are plain numbers, as −log10 of the molar value.

Request: Fill in: pIC50 on UniProtKB Q9UBN7, entry "CC1=C(C)C(=O)C(CONC(=O)CCCCCCC(=O)Nc2ccccc2)=C(C)C1=O"
Result: 7.64

====

assayed-target: Histone deacetylase 8 (Homo sapiens)
Sequence (Q9BY41 whole entry): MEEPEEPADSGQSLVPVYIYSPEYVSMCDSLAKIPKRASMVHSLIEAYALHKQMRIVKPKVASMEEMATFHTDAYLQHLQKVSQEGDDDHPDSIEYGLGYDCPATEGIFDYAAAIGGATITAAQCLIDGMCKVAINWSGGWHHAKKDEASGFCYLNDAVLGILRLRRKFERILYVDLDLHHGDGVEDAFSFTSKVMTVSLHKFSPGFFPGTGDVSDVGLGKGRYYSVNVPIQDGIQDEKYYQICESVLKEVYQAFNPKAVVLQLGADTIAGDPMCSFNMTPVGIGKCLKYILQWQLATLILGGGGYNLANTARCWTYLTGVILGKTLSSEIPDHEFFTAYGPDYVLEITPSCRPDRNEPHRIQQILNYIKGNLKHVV
assay-info: Inhibition of human recombinant HDAC8 using MAZ1675 as fluorogenic substrate measured every 5 mins by optimized homogenous fluorescence based assay
readout-label: IC50 (µM)
One number for each entry, in µM.

Request: Fill in: IC50 on Histone deacetylase 8 (Homo sapiens), entry "CC1=C(C)C(=O)C(CONC(=O)CCCCCCC(=O)Nc2ccccc2)=C(C)C1=O"
Result: 3.84

====

Tested on: Jurkat
assay-info: Cytotoxicity against human Jurkat cells assessed as cell proliferation after 70 hrs by MTS assay
Assay type: functional, cell-based
readout-label: EC50
I'd appreciate it if you wrote the number followed by its unit.

Request: Supply measured EC50 of "CC1=C(C)C(=O)C(CONC(=O)CCCCCCC(=O)Nc2ccccc2)=C(C)C1=O" in your reply.
Result: 6.05 µM

====

assayed-target: UniProt:Q13547
Sequence (Q13547 whole entry): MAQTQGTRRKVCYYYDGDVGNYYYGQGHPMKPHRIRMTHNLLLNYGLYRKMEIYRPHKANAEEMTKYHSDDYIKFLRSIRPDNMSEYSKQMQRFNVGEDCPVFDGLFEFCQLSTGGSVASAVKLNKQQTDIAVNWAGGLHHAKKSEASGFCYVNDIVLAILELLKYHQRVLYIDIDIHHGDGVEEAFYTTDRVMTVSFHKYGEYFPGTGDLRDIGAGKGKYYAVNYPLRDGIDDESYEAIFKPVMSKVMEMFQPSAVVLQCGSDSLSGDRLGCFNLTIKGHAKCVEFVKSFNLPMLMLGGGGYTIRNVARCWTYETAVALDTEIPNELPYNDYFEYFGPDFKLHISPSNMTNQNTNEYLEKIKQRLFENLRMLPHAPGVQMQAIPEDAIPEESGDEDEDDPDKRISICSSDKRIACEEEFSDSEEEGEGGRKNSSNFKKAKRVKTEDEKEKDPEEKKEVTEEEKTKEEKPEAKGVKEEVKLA
assay-info: Inhibition of human recombinant HDAC1 using MAZ1600 as fluorogenic substrate measured every 5 mins by optimized homogenous fluorescence based assay
readout-label: IC50 (nM)
Answers are plain numbers, in nM.

Request: Supply measured IC50 of "CC1=C(C)C(=O)C(CONC(=O)CCCCCCC(=O)Nc2ccccc2)=C(C)C1=O" in your reply.
Result: 371

====

assay-info: Stability of the compound assessed as trypsin (unknown origin)-mediated drug degradation measured as compound remaining after 2 hrs by biochemical assay
Assay type: ADME
measurement-context: human, read-out: Stability
readout-label: remaining at 2 h

Request: Supply measured remaining at 2 h of "CC1=C(C)C(=O)C(CONC(=O)CCCCCCC(=O)Nc2ccccc2)=C(C)C1=O" in your reply.
Result: > 95%
